measurement type: melting point

For orientation, consider the following solved cases.
{"molecule": "O=C(O)c1ccc2[nH]c3c(c2c1)CC(N1C(=O)c2ccccc2C1=O)CC3 (stereo unspecified)", "measurement type": "melting point", "value observed": "345 to 348 °C"}
{"molecule": "Cc1nccn1CC1CCc2c(c3ccccc3n2C)/C1=N/O (stereo unspecified)", "measurement type": "melting point", "value observed": "231 to 233 °C"}

melting point recorded for this molecule, CCOC(=O)c1c(-c2ccccc2)c(-c2ccc(F)cc2)cn1C(C)C , is 104 to 105 °C

Lab note: measured melting point of O=C(NCCCc1c[nH]c(-c2ccc(F)cc2)c1-c1ccncc1)C(F)(F)F was 229 to 230 °C

// melting point value for CC(CS)C(=O)N(CC(=O)O)C1CCCCC1 (stereo unspecified) : 158 to 160 °C

GET /value?item= CCC1(CC)NC(=O)C(CC)(CC)N1 &field=melting point returns 68 to 70 °C

melting point reading for O=C(O)C1C=CCn2c(=O)n(CCCl)c(=O)n21 (stereo unspecified) : 150 to 151 °C

Lookup result for CCc1ccc(C2CCCN2S(=O)(=O)c2ccc(Cl)cc2)cc1 (racemic) ; measured melting point: 94 °C

Value of measured melting point for the entry C[C@H]1CCCN(C(=O)[C@H]2Cc3cc(N4CCCCC4)ccc3N2c2cccnn2)C1 : 226 to 228 °C

For reference, reported melting point for CS(=O)c1ccc(CI)cc1 (stereo unspecified) stands at 80 to 81 °C

Record summary for CC(=O)c1ccc(NC(=O)NCC2(c3ccccc3)CCCCC2)cc1 : reported melting point = 164 to 165 °C

====

Listed here are compounds together with their documented melting point.

Example compounds with recorded melting point:
{"compound": "c1ccc(COc2cccc3nc[nH]c23)cc1", "measurement type": "melting point", "value observed": "165 to 167 °C"}
{"compound": "CCc1csc2nc(C(=O)OC)cn12", "measurement type": "melting point", "value observed": "147 to 149 °C"}
{"compound": "Cc1cnc2c(c1)S(=O)(=O)N(Cc1ccccc1)C2=O", "measurement type": "melting point", "value observed": "167 to 170 °C"}
{"compound": "Cc1cc(C2(C(F)(F)F)CN=C(c3ccc(Cl)cc3)S2)ccc1NC(=O)c1cccc(I)c1C(=O)NC(C)C (stereo not given)", "measurement type": "melting point", "value observed": "121 to 123 °C"}

Memo: O=c1cc(C(F)(F)F)[nH]n1-c1cccc([N+](=O)[O-])c1 , reported melting point: 166 °C

Lab note: measured melting point of COC(=O)c1ccc2cc(C(=O)c3cc(O)c4c(c3)C(C)(C)CCC4(C)C)ccc2c1 was 222 °C

Note to self: melting point recorded for Cc1ccccc1N1CCN(S(=O)(=O)CC23CCC(CC2=NO)C3(C)C)CC1 (stereo not given) was 174 to 175 °C

Memo: CCN(CCCCCC(C)O)C(=O)CCC(=O)c1ccc(NS(C)(=O)=O)cc1 (stereo not given) , reported melting point: 78 to 80 °C

Please fill in: melting point reported for Nc1ccc(Cl)c(S(=O)c2ccccc2)c1 (stereo not given) = 152 to 155 °C

melting point reading for CCN1CCC[C@H]1C(N)=O : 107 to 108 °C

====

measurement type: melting point

Consider the worked cases shown below.
{"compound": "CCCc1c(OCCCOc2ccc(C(=O)O)cc2Br)ccc(C(C)=O)c1OC(C)=O", "melting point": "125 to 127 °C"}
{"compound": "COc1c2c(cc3c(C)cc(=O)oc13)CC(C)O2 (centres undefined)", "melting point": "113 to 115 °C"}
{"compound": "COC(=O)c1[nH]c2ccc(C)cc2c1Sc1ccc(Cl)cc1", "melting point": "230 to 233 °C"}
{"compound": "CC(C)c1cccc(C(C)C)c1NC(=O)CC(=O)CC(c1ccccc1)c1ccccc1", "melting point": "146 to 148 °C"}
{"compound": "O=C(O)c1ccccc1C(=O)Nc1ccc2c(=O)n3c(nc2c1)C(=Cc1ccccc1)CC3", "melting point": "> 300 °C"}
{"compound": "COc1ccc(Cc2cc(-c3ccc(Cl)cc3)sc2Cc2ccc(OC)cc2)cc1", "melting point": "125 to 128 °C"}

Reported melting point of O=C1N(C(c2ccccc2)c2ccccc2)c2ccc(F)cc2C12COc1cc3c(cc12)CCO3 (centres undefined) : 228 to 229 °C

Record CC1(C)OC(=O)Nc2ccc(-c3cccc(CC#N)c3)cc21 , field melting point: 188 to 190 °C

The recorded melting point for COc1ccc(-n2nc3c(-c4ccccc4)c(C)[nH]cc-3c2=O)cc1 is 300 to 310 °C

====

measurement type: melting point

{"compound": "O=S(=O)(c1ccccc1)N1CCC(C(Nc2ccc(F)cc2)c2ccc(F)cc2)CC1 (stereo not given)", "value observed": "175 to 176 °C"}
{"compound": "CC1(C)OC(=O)C(Br)(CCn2cccc2C(=O)c2ccccc2)C(=O)O1", "value observed": "89 to 91 °C"}

The compound listed as CNC(=O)C(Cc1ccccc1)NC(=O)Nc1n[nH]c(=S)s1 (stereo not given) has a reported melting point of 228 °C

Entry under test: CCCc1ccc(OCc2ccc(OCc3nc(-c4ccccc4)oc3C)cc2)cc1OCC(=O)O . Its melting point was 162 to 163 °C

The recorded melting point for entry CCN(CC)C(=O)n1cc(F)c(S(=O)(=O)c2c(C)cc(C)cc2C)n1 equals 109 to 111 °C

Memo: CNC(=O)N(OC(=O)OC)c1ccc(Cl)cc1 , reported melting point: 145 to 146 °C

Measured melting point, C=C1Cc2cc3c(cc2C(c2ccc(N(C(C)=O)C(C)=O)cc2)=NN1C(C)=O)OCO3 : 240 to 245 °C

Just so you know, measured melting point for OC(CCl)(CC(Cl)(Cl)Cl)c1cc(Cl)cc(Cl)c1 (stereo not given) came out at 69 to 70.5 °C

Form field melting point, entry CS(=O)c1ccc(-n2[nH]c3ccccc3c2=O)cc1 (stereo not given) : 208 to 210 °C

Record Cn1cc(C2=C(c3c4n(c5ccccc35)CCC(CCN)C4)C(=O)NC2=O)c2ccccc21 (stereo not given) . Reported melting point: 160 to 165 °C

====

measurement type: melting point

// known answers, use as guide
{"molecule": "O=C(O)CCCCc1nc(NCc2ccc3c(c2)OCO3)c2cc(Cl)sc2n1", "melting point": "130 °C"}
{"molecule": "O=C(O)C(=O)c1ccc(OCCOc2ccc3ccccc3c2)s1", "melting point": "152 to 154 °C"}
{"molecule": "CC(=O)OC[C@H]1OCC(=O)[C@@H](OC(C)=O)[C@@H]1OC(C)=O", "melting point": "86 to 88 °C"}
{"molecule": "Cc1cc2c(c(C(C)(C)C)c1)OC(=O)C2c1ccc2c(c1)c1ccccc1n2C (centres undefined)", "melting point": "84 to 90 °C"}
{"molecule": "CC(C)(C)c1ccc(C(=O)Nc2cn3nc(-n4cnc(Br)c4)ccc3n2)cc1", "melting point": "306 to 307 °C"}
{"molecule": "COC(=O)c1cccc(C)c1S(=O)(=O)Cl", "melting point": "114 to 116 °C"}
{"molecule": "Cc1cc(C)c(C)c(COc2cccc(-c3coc(C(=O)NNC(=O)c4ccc(O)c(C#N)c4)c3-c3ccccc3)c2)c1C", "melting point": "242 to 247 °C"}
{"molecule": "C[C@H]1Oc2ccc(F)cc2N(C)C(=O)[C@H]1NC(=O)OC(C)(C)C", "melting point": "129 to 133 °C"}

// below: melting point requested for another molecule
# molecule NS(=O)(=O)c1ccc(N2CN(c3ccccc3)CC2=O)c(Br)c1 ; its melting point = 193 to 200 °C

====

Recorded measurements of melting point, one per entry

Worked cases, answers included:
{"molecule": "Cc1ccc2cc(-c3cccc4ccccc34)nc(Cl)c2c1", "value observed": "93 °C"}
{"molecule": "COC(=O)c1sc(-n2cccn2)cc1O", "value observed": "162 to 164 °C"}

// sample c1cn(CC2CCCCC2)cn1 , its melting point was 25 to 30 °C

Record FC(F)(F)c1cccnc1OCc1ccnc2cc(Cl)ccc12 , field melting point: 125 to 127 °C

The value of melting point measured for the molecule O=C1Nc2ccc(Cl)cc2C(c2ccccc2)=N[C@@H]1Cc1ccccc1 turned out to be 154 to 157 °C

// recorded melting point for FC(F)(F)c1cccc(-c2cc(C(F)(F)F)n3ncc(-c4ccncc4)c3n2)c1 : 241 °C

====

measurement type: melting point

{"molecule": "Cc1cc(F)ccc1-c1ccc(S(=O)(=O)N2c3ccccc3CC2C(=O)O)cc1 (configuration not stated)", "melting point": "62 to 67 °C"}
{"molecule": "C=CC[C@@H]1C[C@@H](COC(c2ccccc2)(c2ccccc2)c2ccccc2)N(Cc2ccc(OC)cc2)C1=O", "melting point": "130 to 132 °C"}
{"molecule": "CCOc1ccc(C(C)=O)cc1C(=O)O", "melting point": "122 to 125 °C"}
{"molecule": "CC1(N2Cc3cc(CNC(=O)Cc4ccc(Cl)cc4)ccc3C2=O)CCC(=O)NC1=O (configuration not stated)", "melting point": "230 to 232 °C"}

Pending molecule:
Noted for C=C(C)c1cc(NC(=O)N2CCN(c3cc(C)cc(C)c3)CC2)c(OC)nc1C : its melting point reads 140 to 142 °C
